- System: MCF7/hPRLR (MCF7/PRLR) cells
- assay-name: Cell viability (cell kill) assay, nuclear counts
- Assay type: cell-based, human
- measurement-conditions: Table 18
quantity-kind: % Kill (%)

molecule	measured
H1H6958N2-mc-VC-PAB-MMAE (conjugate) VH: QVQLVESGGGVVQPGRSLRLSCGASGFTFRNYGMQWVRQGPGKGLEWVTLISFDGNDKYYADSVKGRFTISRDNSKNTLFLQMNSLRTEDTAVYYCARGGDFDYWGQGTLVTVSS VL: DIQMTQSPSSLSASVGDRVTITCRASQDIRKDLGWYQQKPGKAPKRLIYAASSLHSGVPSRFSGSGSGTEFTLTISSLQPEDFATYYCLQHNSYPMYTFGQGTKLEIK	88
H1H6953N-mc-VC-PAB-MMAE (conjugate) VH: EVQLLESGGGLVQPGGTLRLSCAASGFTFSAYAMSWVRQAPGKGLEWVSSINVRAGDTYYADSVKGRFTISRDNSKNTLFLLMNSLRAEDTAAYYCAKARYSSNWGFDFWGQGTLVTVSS VL: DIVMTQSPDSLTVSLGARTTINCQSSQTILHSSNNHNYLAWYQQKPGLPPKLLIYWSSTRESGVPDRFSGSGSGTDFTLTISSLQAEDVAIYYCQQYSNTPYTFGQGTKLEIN	85
H1H6958N2-DM1: anti-PRLR antibody H1H6958N2 conjugated to DM1 through an SMCC linker (conjugate) VH: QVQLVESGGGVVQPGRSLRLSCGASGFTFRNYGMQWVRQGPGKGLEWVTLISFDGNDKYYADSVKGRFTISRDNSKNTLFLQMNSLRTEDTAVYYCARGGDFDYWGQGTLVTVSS VL: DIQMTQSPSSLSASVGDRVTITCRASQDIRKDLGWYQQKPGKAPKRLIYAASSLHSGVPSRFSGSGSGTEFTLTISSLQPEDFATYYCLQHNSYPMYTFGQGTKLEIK	83
H1H6765P-mc-VC-PAB-MMAE (conjugate) VH: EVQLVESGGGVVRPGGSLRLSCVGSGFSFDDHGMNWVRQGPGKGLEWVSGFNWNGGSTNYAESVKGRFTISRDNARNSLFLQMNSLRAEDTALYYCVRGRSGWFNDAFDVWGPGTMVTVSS VL: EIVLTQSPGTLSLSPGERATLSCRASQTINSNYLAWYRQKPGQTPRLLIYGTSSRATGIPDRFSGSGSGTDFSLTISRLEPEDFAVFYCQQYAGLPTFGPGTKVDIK	86
H1H6765P-SMCC-DM1 (conjugate) VH: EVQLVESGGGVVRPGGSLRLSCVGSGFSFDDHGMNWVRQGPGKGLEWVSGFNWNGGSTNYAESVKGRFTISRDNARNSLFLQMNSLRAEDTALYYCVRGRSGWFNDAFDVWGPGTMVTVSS VL: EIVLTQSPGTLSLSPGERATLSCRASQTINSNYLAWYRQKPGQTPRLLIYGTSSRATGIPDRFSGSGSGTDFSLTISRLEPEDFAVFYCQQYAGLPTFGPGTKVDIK	81
H1H6953N-SMCC-DM1 (conjugate) VH: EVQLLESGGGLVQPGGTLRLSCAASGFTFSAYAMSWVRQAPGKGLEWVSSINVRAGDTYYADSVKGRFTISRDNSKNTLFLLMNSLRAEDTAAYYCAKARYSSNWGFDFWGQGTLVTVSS VL: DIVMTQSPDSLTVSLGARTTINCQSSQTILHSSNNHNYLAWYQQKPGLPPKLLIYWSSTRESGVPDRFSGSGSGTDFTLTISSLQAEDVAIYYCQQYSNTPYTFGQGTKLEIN	80
